System: intracellular HBV DNA
ASSAY_REMARKS: Real-time PCR for intracellular HBV DNA in HepAD38 cells
Format: cell-based
CONDITION_NOTES: Hepatitis B virus, HePAD38, 65 h, 65 hours treatment
ATTRIBUTE_MEASURED: pIC50
// pIC50 is dimensionless: -log10 of concentration (M)

MOLECULE: CC(C)(O)c1cc(N(Cc2n[nH]c3c2CCCO3)C(=O)Nc2ccc(F)c(Cl)c2)on1
pIC50: 6.82
//
MOLECULE: COc1ncc(N(Cc2cc(C(F)F)[nH]n2)C(=O)Nc2cc(F)c(F)c(Cl)c2)cn1
pIC50: 7.35
//
MOLECULE: COc1ccc(N(Cc2n[nH]c3c2CCC3)C(=O)Nc2ccc(F)c(Cl)c2)cc1
pIC50: 8.03

Fetch value of pIC50 on intracellular HBV DNA for COc1ccc(N(Cc2cc(C)nn2C)C(=O)Nc2ccc(F)c(Cl)c2)cc1 .
6.44

// output pIC50; input COc1ncc(N(Cc2cc(C(F)F)[nH]n2)C(=O)Nc2ccc(F)c(C(F)F)c2)cn1 ; system intracellular HBV DNA
7.70

Retrieve pIC50 on intracellular HBV DNA; query COc1ncc(N(Cc2cc(C#N)[nH]n2)C(=O)Nc2ccc(F)c(C(F)F)c2)cn1
7.80

###

Test system: intracellular HBV DNA
ASSAY_REMARKS: Real-time PCR for intracellular HBV DNA in HepAD38 cells
Assay type: cell-based
CONDITION_NOTES: Hepatitis B virus, HePAD38, 65 h, 65 hours treatment
Binarize IC50 at 70 nM; below is Satisfied, at or above is Not satisfied.

Please review the entries below; each comes with its answer.
COMPOUND: CC(=O)c1cc(N(Cc2n[nH]c3c2CCOC3)C(=O)Nc2ccc(F)c(Cl)c2)ccn1
CLASS_NAME: Not satisfied
--
COMPOUND: COc1ncc(N(Cc2n[nH]c(C(F)(F)F)c2CC(C)O)C(=O)Nc2ccc(F)c(C(F)F)c2)cn1 (centres unmarked)
CLASS_NAME: Not satisfied
--
COMPOUND: COc1ncc(N(Cc2cc(C(F)F)[nH]n2)C(=O)Nc2cc(F)c(F)c(F)c2)cn1
CLASS_NAME: Satisfied
--
COMPOUND: N#Cc1cncc(N(Cc2n[nH]c3c2CCCO3)C(=O)Nc2ccc(F)c(Cl)c2)c1
CLASS_NAME: Not satisfied
--
COMPOUND: O=C(Nc1ccc(F)c(Cl)c1)N(Cc1n[nH]c2c1CCCO2)c1cc[nH]n1
CLASS_NAME: Not satisfied

Does the reported IC50 of COc1ncc(N(Cc2cc(C#N)[nH]n2)C(=O)Nc2ccc(F)c(C#N)c2)cn1 stay below 70 nM?
Satisfied

Input COc1ccc(N(Cc2n[nH]c(C(F)(F)F)c2CCO)C(=O)Nc2ccc(F)c(Cl)c2)cn1 ; condition: IC50 strictly below 70 nM. Does it hold?
Satisfied

Dear reviewer, please state whether COc1cc(N(Cc2n[nH]c3c2COC3)C(=O)Nc2ccc(F)c(Cl)c2)ccn1 has IC50 strictly beneath 70 nM.
Satisfied

###

Measured CC50 at 65 h values are reported for all entries that follow.
ASSAY_REMARKS: Cell viability assay (EZ-Cytox), cytotoxicity
Assay type: cell-based
CONDITION_NOTES: human, HepAD38 cells

// solved cases for CC50 at 65 h follow
COMPOUND: COc1ncc(N(Cc2cc(C(F)F)[nH]n2)C(=O)Nc2ccc(F)c(C#N)c2)cn1 [Example 155]
RECORDED_VALUE: > 100 µM
--
COMPOUND: COc1ncc(N(Cc2n[nH]c(C(F)F)c2Br)C(=O)Nc2ccc(F)c(Cl)c2)cn1 [Example 98]
RECORDED_VALUE: > 66 µM
--
COMPOUND: COc1ncc(N(Cc2cc(C(F)(F)F)[nH]n2)C(=O)Nc2ccc(F)c(Cl)c2)c(C)n1 [Example 28]
RECORDED_VALUE: 47.2 µM

From here, focus on the item given below.
Provide one value: measured CC50 at 65 h of COc1ncc(N(Cc2cc(C(F)(F)F)[nH]n2)C(=O)Nc2ccnc(C#N)c2)cn1 [Example 146]
> 100 µM

The reported measurements were obtained from patent US20250009742A1.
